molecular target: Bcr/Abl fusion protein (Homo sapiens) (UniProt P00519+P11274); assay: Peptide phosphorylation by Bcr-Abl protein tyrosine kinase at 25 degree for 30 min in a cell-free system; assay type: protein assay
Sequence (P00519 whole entry, looked up, the tested form may be a part): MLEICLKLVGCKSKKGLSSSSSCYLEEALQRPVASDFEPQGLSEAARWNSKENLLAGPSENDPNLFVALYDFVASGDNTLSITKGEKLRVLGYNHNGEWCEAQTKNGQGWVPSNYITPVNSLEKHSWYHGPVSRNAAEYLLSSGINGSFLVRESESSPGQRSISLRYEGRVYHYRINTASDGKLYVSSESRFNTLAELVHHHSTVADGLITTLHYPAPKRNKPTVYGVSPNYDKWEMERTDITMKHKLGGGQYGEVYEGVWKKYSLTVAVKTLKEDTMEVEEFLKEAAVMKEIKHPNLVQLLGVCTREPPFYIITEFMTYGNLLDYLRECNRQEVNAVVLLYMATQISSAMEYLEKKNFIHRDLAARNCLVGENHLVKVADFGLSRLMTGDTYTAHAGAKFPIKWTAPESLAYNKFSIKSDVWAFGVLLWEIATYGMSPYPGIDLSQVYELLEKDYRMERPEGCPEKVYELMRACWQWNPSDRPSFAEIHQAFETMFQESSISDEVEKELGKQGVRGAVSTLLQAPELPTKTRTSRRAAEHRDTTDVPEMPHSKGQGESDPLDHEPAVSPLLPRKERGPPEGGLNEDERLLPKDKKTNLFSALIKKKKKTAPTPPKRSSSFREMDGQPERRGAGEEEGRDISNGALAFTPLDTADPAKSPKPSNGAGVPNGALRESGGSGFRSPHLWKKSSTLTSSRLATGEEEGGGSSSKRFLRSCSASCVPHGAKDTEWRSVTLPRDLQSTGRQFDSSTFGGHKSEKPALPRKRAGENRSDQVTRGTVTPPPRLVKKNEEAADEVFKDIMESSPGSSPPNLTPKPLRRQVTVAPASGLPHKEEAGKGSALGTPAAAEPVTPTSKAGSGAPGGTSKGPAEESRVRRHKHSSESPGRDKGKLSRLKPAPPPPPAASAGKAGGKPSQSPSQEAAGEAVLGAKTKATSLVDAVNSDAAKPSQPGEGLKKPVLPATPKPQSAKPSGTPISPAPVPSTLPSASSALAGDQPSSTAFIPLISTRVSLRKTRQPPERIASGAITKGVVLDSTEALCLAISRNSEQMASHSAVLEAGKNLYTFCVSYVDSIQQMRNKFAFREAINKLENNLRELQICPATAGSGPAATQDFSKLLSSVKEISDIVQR
Sequence (P11274 whole entry, looked up, the tested form may be a part): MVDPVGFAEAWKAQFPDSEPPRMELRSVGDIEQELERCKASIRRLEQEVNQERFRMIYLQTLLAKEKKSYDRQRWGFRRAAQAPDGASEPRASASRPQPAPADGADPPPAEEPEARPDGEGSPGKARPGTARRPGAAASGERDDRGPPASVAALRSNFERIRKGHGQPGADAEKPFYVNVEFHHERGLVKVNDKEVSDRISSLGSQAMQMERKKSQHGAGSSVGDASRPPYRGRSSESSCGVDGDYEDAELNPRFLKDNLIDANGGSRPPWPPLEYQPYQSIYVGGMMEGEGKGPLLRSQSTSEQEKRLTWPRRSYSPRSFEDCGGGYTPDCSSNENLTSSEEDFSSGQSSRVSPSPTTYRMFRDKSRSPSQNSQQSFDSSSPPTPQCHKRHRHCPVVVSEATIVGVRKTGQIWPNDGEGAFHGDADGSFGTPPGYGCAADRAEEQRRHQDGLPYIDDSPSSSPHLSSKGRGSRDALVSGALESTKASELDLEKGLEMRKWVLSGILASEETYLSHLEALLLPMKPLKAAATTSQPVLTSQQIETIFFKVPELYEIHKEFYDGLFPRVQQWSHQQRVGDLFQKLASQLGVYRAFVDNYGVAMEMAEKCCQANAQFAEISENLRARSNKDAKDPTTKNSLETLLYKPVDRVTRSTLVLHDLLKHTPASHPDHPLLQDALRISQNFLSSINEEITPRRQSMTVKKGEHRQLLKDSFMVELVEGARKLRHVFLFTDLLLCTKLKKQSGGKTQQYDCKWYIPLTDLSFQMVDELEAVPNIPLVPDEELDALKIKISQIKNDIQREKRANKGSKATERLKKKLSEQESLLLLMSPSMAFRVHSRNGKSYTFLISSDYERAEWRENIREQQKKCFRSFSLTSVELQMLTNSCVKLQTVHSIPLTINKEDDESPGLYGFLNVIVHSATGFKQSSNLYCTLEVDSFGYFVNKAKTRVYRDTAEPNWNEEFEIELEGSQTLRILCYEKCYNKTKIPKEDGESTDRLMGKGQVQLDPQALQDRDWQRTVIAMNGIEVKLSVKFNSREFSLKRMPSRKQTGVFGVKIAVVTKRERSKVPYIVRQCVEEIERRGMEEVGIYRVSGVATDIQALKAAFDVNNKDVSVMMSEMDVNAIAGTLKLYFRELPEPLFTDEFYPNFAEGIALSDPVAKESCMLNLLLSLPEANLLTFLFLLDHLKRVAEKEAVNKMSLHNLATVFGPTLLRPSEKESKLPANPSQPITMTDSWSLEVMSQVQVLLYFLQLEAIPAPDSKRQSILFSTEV
Peptide text beside a SMILES is read from it.
observedProperty: Activity (pM)

CC[C@H](C)[C@H](NC(=O)[C@H](CCCN=C(N)N)NC(=O)[C@@H]1CCCN1)C(=O)N[C@@H](Cc1ccc(O)cc1)C(=O)N[C@@H](CC(=O)O)C(=O)N[C@H](C(=O)N1CCC[C@H]1C(=O)N[C@@H](Cc1ccc(O)cc1)C(=O)O)[C@@H](C)CC (H-PRIYDIPY-OH): 9.5

[1] CC[C@H](C)[C@H](NC(=O)[C@H](CCC(=O)O)NC(=O)[C@@H](N)CCC(=O)O)C(=O)N[C@@H](Cc1ccc(O)cc1)C(=O)N[C@@H](CCC(=O)O)C(=O)N[C@@H](CCC(=O)O)C(=O)N1CCC[C@H]1C(=O)N[C@@H](Cc1ccc(O)cc1)C(=O)O (H-EEIYEEPY-OH)
[2] CC[C@H](C)[C@H](NC(=O)[C@H](CCCN=C(N)N)NC(=O)[C@@H](N)CC(C)C)C(=O)N[C@@H](Cc1ccc(O)cc1)C(=O)N[C@@H](CCC(=O)O)C(=O)N[C@@H](CCCN=C(N)N)C(=O)N1CCC[C@H]1C(=O)N[C@@H](CCCN=C(N)N)C(=O)O (H-LRIYERPR-OH)
(Q) # query: argmin of Activity over 1 and 2 Select an item and report its label.
(A) 2
